- TARGET OR TEST SYSTEM: UniProt P47747
- EXPERIMENT: In vitro Histamine H2 receptor antagonist activity in the histamine-stimulated guinea pig right atrium
- Format: functional, tissue-based
- CONDITION SET: Cardiac atrium
MEASURED QUANTITY: -Log KB

Quick one: give measured -Log KB for CC(NCCCOc1cccc(CN2CCCCC2)c1)=C(C#N)C#N
< 4.9

Recall and state the measured -Log KB for FC(F)(F)CNCCCOc1cccc(CN2CCCCC2)c1 .
< 4.3

Please give the documented -Log KB of O=S(=O)(NCCCOc1cccc(CN2CCCCC2)c1)c1ccccc1
< 4.8

----------
Measured -Log KB accompanies every entry in the list below.
- TARGET OR TEST SYSTEM: Histamine H2 receptor (Cavia porcellus) (UniProt P47747)
- Sequence (P47747 whole entry): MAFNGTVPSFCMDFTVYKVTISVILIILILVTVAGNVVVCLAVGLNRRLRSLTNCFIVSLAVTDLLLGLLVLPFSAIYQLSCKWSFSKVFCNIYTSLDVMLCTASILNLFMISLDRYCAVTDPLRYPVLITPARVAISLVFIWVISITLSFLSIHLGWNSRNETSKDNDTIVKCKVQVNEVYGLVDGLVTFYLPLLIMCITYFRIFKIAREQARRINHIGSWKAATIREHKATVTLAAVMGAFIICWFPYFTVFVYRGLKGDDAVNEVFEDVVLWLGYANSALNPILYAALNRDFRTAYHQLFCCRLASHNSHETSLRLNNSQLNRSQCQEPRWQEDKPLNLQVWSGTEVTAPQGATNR
- EXPERIMENT: In vitro Histamine H2 receptor antagonist activity in the histamine-stimulated guinea pig right atrium
- Format: functional, tissue-based
- CONDITION SET: Cardiac atrium

Example cases with answers are listed next.
{"MOL SMILES": "CN(C)Cc1ccc(-c2cccc(CNc3[nH]ccc3[N+](=O)[O-])c2)o1", "-Log KB": "< 3.8"}
{"MOL SMILES": "CN(C)Cc1ccc(-c2ccc(Nc3[nH]ccc3[N+](=O)[O-])cc2)o1", "-Log KB": "< 4.3"}

# evaluate next
Given CN(C)c1cccc(-c2csc(NC(=N)N)n2)c1 , report its -Log KB on Histamine H2 receptor (Cavia porcellus) (UniProt P47747).
< 3.8
